Values from ChEMBL document CHEMBL5614422

As shown below, each of these compounds has a reported IC50 at 24 h value.
- ASSAY_PROTOCOL: Cytotoxicity against mouse HT-22 cells assessed as cell viability incubated for 24 hrs by CCK-8 method
- Type: toxicity, cell-based

- SMILES_STRUCTURE: "Cc1ccc(C(=O)NCCc2c[nH]c3cc4c(cc23)OCO4)c(O)c1"
  QUANTITY_UNIT: "µM"
  RELATION_QUALIFIER: ">"
  IC50 at 24 h: 100
- SMILES_STRUCTURE: "COc1ccc(O)c(C(=O)NCCc2c[nH]c3ccccc23)c1"
  QUANTITY_UNIT: "µM"
  RELATION_QUALIFIER: ">"
  IC50 at 24 h: 100
- SMILES_STRUCTURE: "COc1cccc2[nH]cc(CCNC(=O)c3ccc(C)cc3O)c12"
  QUANTITY_UNIT: "µM"
  RELATION_QUALIFIER: "="
  IC50 at 24 h: 78.4
- SMILES_STRUCTURE: "CNc1ccc2[nH]cc(CCNC(=O)c3ccc(C)cc3O)c2c1"
  QUANTITY_UNIT: "µM"
  RELATION_QUALIFIER: ">"
  IC50 at 24 h: 100
- SMILES_STRUCTURE: "Cc1ccc(C(=O)NCCc2c[nH]c3ccc(C)cc23)c(O)c1"
  QUANTITY_UNIT: "µM"
  RELATION_QUALIFIER: ">"
  IC50 at 24 h: 100
- SMILES_STRUCTURE: "Cc1ccc(C(=O)NCCc2c[nH]c3cc(N(C)C)ccc23)c(O)c1"
  QUANTITY_UNIT: "µM"
  RELATION_QUALIFIER: "="
  IC50 at 24 h: 46.4
- SMILES_STRUCTURE: "Cc1ccc(C(=O)NCCc2c[nH]c3cccc(F)c23)c(O)c1"
  QUANTITY_UNIT: "µM"
  RELATION_QUALIFIER: "="
  IC50 at 24 h: 84.6
- SMILES_STRUCTURE: "COc1ccc2c(CCNC(=O)c3ccc(C)cc3O)c[nH]c2c1"
  QUANTITY_UNIT: "µM"
  RELATION_QUALIFIER: "="
  IC50 at 24 h: 102
- SMILES_STRUCTURE: "COc1ccc2[nH]cc(CCNC(=O)c3ccc(C)cc3O)c2c1"
  QUANTITY_UNIT: "µM"
  RELATION_QUALIFIER: ">"
  IC50 at 24 h: 100
- SMILES_STRUCTURE: "Cc1ccc(C(=O)NCCc2c[nH]c3c(Br)cccc23)c(O)c1"
  QUANTITY_UNIT: "µM"
  RELATION_QUALIFIER: ">"
  IC50 at 24 h: 100
- SMILES_STRUCTURE: "Cc1ccc(C(=O)NCCc2c[nH]c3c(F)cccc23)c(O)c1"
  QUANTITY_UNIT: "µM"
  RELATION_QUALIFIER: "="
  IC50 at 24 h: 86.2

* * *

- ASSAY_PROTOCOL: Cytotoxicity against mouse HT-22 cells assessed as cell viability incubated for 24 hrs by CCK-8 method
- Type: toxicity, cell-based
QUANTITY_MEASURED: IC50 at 24 h (µM)

- SMILES_STRUCTURE: "COc1cc(C)cc2[nH]cc(CCNC(=O)c3ccc(C)cc3O)c12"
  QUANTITY_MEASURED: "IC50 at 24 h"
  RELATION_QUALIFIER: "="
  MEASURED_RESULT: 73
- SMILES_STRUCTURE: "Cc1ccc(C(=O)NCCc2c[nH]c3cc(Cl)ccc23)c(O)c1"
  QUANTITY_MEASURED: "IC50 at 24 h"
  RELATION_QUALIFIER: "="
  MEASURED_RESULT: 63.1
- SMILES_STRUCTURE: "Cc1ccc(C(=O)NCCc2c[nH]c3cc(F)cc(F)c23)c(O)c1"
  QUANTITY_MEASURED: "IC50 at 24 h"
  RELATION_QUALIFIER: "="
  MEASURED_RESULT: 61.9
- SMILES_STRUCTURE: "COc1cccc2c(CCNC(=O)c3ccc(C)cc3O)c[nH]c12"
  QUANTITY_MEASURED: "IC50 at 24 h"
  RELATION_QUALIFIER: "="
  MEASURED_RESULT: 73.2
- SMILES_STRUCTURE: "O=C(NCCc1c[nH]c2ccccc12)c1ccc(Br)cc1O"
  QUANTITY_MEASURED: "IC50 at 24 h"
  RELATION_QUALIFIER: ">"
  MEASURED_RESULT: 100
- SMILES_STRUCTURE: "COc1cc(Cl)c2c(CCNC(=O)c3ccc(C)cc3O)c[nH]c2c1"
  QUANTITY_MEASURED: "IC50 at 24 h"
  RELATION_QUALIFIER: ">"
  MEASURED_RESULT: 100
- SMILES_STRUCTURE: "Cc1ccc(C(=O)NCCc2c[nH]c3ccc(Br)cc23)c(O)c1"
  QUANTITY_MEASURED: "IC50 at 24 h"
  RELATION_QUALIFIER: "="
  MEASURED_RESULT: 76.1
- SMILES_STRUCTURE: "Cc1ccc(C(=O)NCCc2c[nH]c3c(C)cccc23)c(O)c1"
  QUANTITY_MEASURED: "IC50 at 24 h"
  RELATION_QUALIFIER: ">"
  MEASURED_RESULT: 100
- SMILES_STRUCTURE: "O=C(NCCc1c[nH]c2ccccc12)c1ccc(Cl)cc1O"
  QUANTITY_MEASURED: "IC50 at 24 h"
  RELATION_QUALIFIER: "="
  MEASURED_RESULT: 99.7
- SMILES_STRUCTURE: "O=C(NCCc1c[nH]c2ccccc12)c1cccc(Cl)c1O"
  QUANTITY_MEASURED: "IC50 at 24 h"
  RELATION_QUALIFIER: "="
  MEASURED_RESULT: 52
- SMILES_STRUCTURE: "Cc1ccc(C(=O)NCCc2c[nH]c3cccc(C)c23)c(O)c1"
  QUANTITY_MEASURED: "IC50 at 24 h"
  RELATION_QUALIFIER: ">"
  MEASURED_RESULT: 100
- SMILES_STRUCTURE: "O=C(NCCc1c[nH]c2ccccc12)c1ccccc1O"
  QUANTITY_MEASURED: "IC50 at 24 h"
  RELATION_QUALIFIER: ">"
  MEASURED_RESULT: 100
- SMILES_STRUCTURE: "Cc1ccc(C(=O)NCCc2c[nH]c3ccccc23)c(O)c1"
  QUANTITY_MEASURED: "IC50 at 24 h"
  RELATION_QUALIFIER: ">"
  MEASURED_RESULT: 100
- SMILES_STRUCTURE: "COc1cc2[nH]cc(CCNC(=O)c3ccc(C)cc3O)c2cc1OC"
  QUANTITY_MEASURED: "IC50 at 24 h"
  RELATION_QUALIFIER: "="
  MEASURED_RESULT: 54.6
- SMILES_STRUCTURE: "Cc1ccc(C(=O)NCCc2c[nH]c3c(N(C)C)cccc23)c(O)c1"
  QUANTITY_MEASURED: "IC50 at 24 h"
  RELATION_QUALIFIER: "="
  MEASURED_RESULT: 59.8
- SMILES_STRUCTURE: "COc1ccc(C(=O)NCCc2c[nH]c3ccccc23)c(O)c1"
  QUANTITY_MEASURED: "IC50 at 24 h"
  RELATION_QUALIFIER: "="
  MEASURED_RESULT: 52.6
- SMILES_STRUCTURE: "O=C(NCCc1c[nH]c2ccccc12)c1c(O)cccc1F"
  QUANTITY_MEASURED: "IC50 at 24 h"
  RELATION_QUALIFIER: ">"
  MEASURED_RESULT: 100
- SMILES_STRUCTURE: "Cc1cccc(C(=O)NCCc2c[nH]c3ccccc23)c1O"
  QUANTITY_MEASURED: "IC50 at 24 h"
  RELATION_QUALIFIER: "="
  MEASURED_RESULT: 51.5
- SMILES_STRUCTURE: "Cc1ccc(C(=O)NCCc2c[nH]c3cc(Br)ccc23)c(O)c1"
  QUANTITY_MEASURED: "IC50 at 24 h"
  RELATION_QUALIFIER: "="
  MEASURED_RESULT: 70.8
- SMILES_STRUCTURE: "Cc1ccc(C(=O)NCCc2c[nH]c3ccc(N(C)C)cc23)c(O)c1"
  QUANTITY_MEASURED: "IC50 at 24 h"
  RELATION_QUALIFIER: ">"
  MEASURED_RESULT: 100
- SMILES_STRUCTURE: "Cc1ccc(C(=O)NCCc2c[nH]c3cccc(Br)c23)c(O)c1"
  QUANTITY_MEASURED: "IC50 at 24 h"
  RELATION_QUALIFIER: ">"
  MEASURED_RESULT: 100
- SMILES_STRUCTURE: "O=C(NCCc1c[nH]c2ccccc12)c1cccc(Br)c1O"
  QUANTITY_MEASURED: "IC50 at 24 h"
  RELATION_QUALIFIER: "="
  MEASURED_RESULT: 48.5
- SMILES_STRUCTURE: "Cc1cccc(O)c1C(=O)NCCc1c[nH]c2ccccc12"
  QUANTITY_MEASURED: "IC50 at 24 h"
  RELATION_QUALIFIER: "="
  MEASURED_RESULT: 60
- SMILES_STRUCTURE: "O=C(NCCc1c[nH]c2ccccc12)c1cc(Cl)ccc1O"
  QUANTITY_MEASURED: "IC50 at 24 h"
  RELATION_QUALIFIER: ">"
  MEASURED_RESULT: 100
